Values were extracted from ChEMBL document CHEMBL3784976.

molecular target: Transient receptor potential cation channel subfamily A member 1 (Homo sapiens); assay: Antagonist activity at human TRPA1 expressed in tetracycline-inducible T-REx expression system transfected CHO cells assessed as inhibition of AITC-induced Ca2+ influx preincubated for 2 mins followed by AITC addition measured for 2 mins by Fluo-4 dye based FLIPR assay; type: cell-based
Sequence (O75762 whole entry): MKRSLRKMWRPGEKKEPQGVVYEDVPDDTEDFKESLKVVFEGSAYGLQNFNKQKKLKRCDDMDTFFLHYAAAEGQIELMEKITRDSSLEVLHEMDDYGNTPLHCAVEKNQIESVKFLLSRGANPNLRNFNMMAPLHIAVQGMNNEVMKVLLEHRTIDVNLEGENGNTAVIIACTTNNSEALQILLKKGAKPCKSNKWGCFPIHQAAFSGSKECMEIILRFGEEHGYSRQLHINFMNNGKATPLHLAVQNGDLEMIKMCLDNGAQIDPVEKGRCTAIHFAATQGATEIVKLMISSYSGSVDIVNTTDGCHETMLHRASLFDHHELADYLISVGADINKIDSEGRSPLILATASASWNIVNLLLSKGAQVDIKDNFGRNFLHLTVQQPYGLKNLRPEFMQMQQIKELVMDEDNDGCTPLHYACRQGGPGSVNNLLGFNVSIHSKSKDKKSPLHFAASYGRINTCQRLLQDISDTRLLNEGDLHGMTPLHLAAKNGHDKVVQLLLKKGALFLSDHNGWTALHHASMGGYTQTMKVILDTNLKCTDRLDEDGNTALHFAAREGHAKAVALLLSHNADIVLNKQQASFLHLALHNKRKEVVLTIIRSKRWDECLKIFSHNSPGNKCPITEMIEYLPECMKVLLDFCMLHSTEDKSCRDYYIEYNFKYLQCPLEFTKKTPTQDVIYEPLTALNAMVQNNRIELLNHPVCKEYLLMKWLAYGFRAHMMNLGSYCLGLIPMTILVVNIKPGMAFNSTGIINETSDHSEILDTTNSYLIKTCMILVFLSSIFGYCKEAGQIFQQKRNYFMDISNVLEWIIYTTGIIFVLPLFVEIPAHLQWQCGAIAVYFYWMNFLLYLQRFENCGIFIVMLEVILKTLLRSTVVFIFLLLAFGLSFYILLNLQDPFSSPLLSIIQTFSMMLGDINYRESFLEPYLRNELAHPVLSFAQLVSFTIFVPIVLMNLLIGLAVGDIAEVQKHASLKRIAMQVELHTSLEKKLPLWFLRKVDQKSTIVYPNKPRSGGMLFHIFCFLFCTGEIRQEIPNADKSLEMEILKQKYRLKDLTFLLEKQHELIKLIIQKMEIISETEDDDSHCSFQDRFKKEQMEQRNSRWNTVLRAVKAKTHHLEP
property.measured: IC50 (nM)

{"columns": ["molecule", "qualifying.sign", "readout.value"],
 "data": [
  ["O=c1c2cccnc2ncn1Cc1nc(CCc2ccc(Cl)cc2)no1", "=", 41],
  ["Cc1ccc2ncn(CC(=O)NCCc3ccc(Cl)cc3)c(=O)c2c1", "=", 265],
  ["O=c1c2cccnc2ncn1Cc1nc(CC(F)c2ccc(Cl)cc2)no1 (racemic)", "=", 41],
  ["O=C(Cn1cnc2cnccc2c1=O)NCCc1ccc(Cl)cc1", "=", 1710],
  ["Cc1ccnc2ncn(Cc3nc(CCc4ccc(Cl)cc4)no3)c(=O)c12", "=", 16],
  ["Cc1cccc2ncn(CC(=O)NCCc3ccc(Cl)cc3)c(=O)c12", "=", 70],
  ["O=C(Cn1cnc2ncccc2c1=O)NCCc1ccc(Cl)cc1", "=", 1180],
  ["COc1cccc2c(=O)n(CC(=O)NCCc3ccc(Cl)cc3)cnc12", "=", 1460],
  ["C/C(=C\\c1noc(Cn2cnc3ncn(C)c3c2=O)n1)c1ccc(Cl)cc1", "=", 71],
  ["O=c1c2cccnc2ncn1Cc1noc(CCc2ccc(Cl)cc2)n1", "=", 156],
  ["Cn1cnc2ncn(Cc3noc(CCc4ccc(Cl)cc4)n3)c(=O)c21", "=", 211],
  ["O=C(Cn1cnc2c(F)cccc2c1=O)NCCc1ccc(Cl)cc1", "=", 1330],
  ["Cc1ccc2c(=O)n(CC(=O)NCCc3ccc(Cl)cc3)cnc2c1", ">", 4200],
  ["Cc1cccc2c(=O)n(CC(=O)NCCc3ccc(Cl)cc3)cnc12", "=", 802],
  ["O=C(Cn1cnc2ccccc2c1=O)NCCc1ccc(Cl)cc1", ">", 16700],
  ["Cc1cccc2c(=O)n(CC(=O)NCCc3ccccc3)cnc12", ">", 8330],
  ["Cc1cccc2c(=O)n(CC(=O)NCCc3ccc(OC(F)F)cc3)cnc12", "=", 685],
  ["O=C(Cn1cnc2c(C(F)(F)F)cccc2c1=O)NCCc1ccc(Cl)cc1", "=", 286],
  ["Cn1cnc2ncn(Cc3nc(CCc4ccc(Cl)cc4)no3)c(=O)c21", "=", 20],
  ["COc1cccc(CCNC(=O)Cn2cnc3c(C)cccc3c2=O)c1", ">", 16700],
  ["COc1ccccc1CCNC(=O)Cn1cnc2c(C)cccc2c1=O", ">", 16700],
  ["C/C(=C\\c1nc(Cn2cnc3ncn(C)c3c2=O)no1)c1ccc(Cl)cc1", "=", 165],
  ["N#Cc1cccc2c(=O)n(CC(=O)NCCc3ccc(Cl)cc3)cnc12", "=", 201]
]}
